Molecular target: M1 muscarinic receptor (Homo sapiens, UniProt P11229)
Construct: expressed in transfected cells; host or cells: CHO (M1-CHO)
Sequence (P11229 1-460): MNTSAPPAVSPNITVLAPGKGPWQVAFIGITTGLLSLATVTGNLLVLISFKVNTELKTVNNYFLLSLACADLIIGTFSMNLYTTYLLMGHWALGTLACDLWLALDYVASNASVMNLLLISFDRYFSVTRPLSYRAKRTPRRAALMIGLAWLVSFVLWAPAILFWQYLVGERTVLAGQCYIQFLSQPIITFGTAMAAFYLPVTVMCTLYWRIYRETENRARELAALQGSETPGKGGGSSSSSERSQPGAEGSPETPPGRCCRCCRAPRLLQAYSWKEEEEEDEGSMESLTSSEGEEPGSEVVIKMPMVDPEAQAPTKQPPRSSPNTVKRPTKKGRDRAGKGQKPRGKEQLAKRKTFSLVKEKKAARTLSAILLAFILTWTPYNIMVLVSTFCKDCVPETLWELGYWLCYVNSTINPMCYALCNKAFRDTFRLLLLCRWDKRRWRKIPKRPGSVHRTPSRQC
Test: Functional mobilization of intracellular calcium (FLIPR) in CHO cells expressing M1
Format: cell-based
Settings: CHO; 100% = maximum response obtained with the Carbachol control; read-out: M1 Efficacy
MEASURED ENDPOINT: Emax

Below, each entry is followed by its recorded Emax result.
1) CCC(=O)C1NCCC1C(=O)N[C@H]1CCC2(CCN(CCC(C)(C)C)CC2)c2cc(F)ccc21 (stereo partly shown)	25 to 100%
2) CCC(=O)N(C)[C@H]1CCC2(CCN(CCC(C)(C)C)CC2)c2ccccc21	25 to 100%
3) CCN(C(=O)C1CCOC1)[C@H]1CCC2(CCN(CCC(C)(C)C)CC2)c2ccccc21 (stereo partly shown)	25 to 100%

Would you kindly look at the next entry?
Q: # input compound: CC(C)(C)CCN1CCC2(CC[C@@H](NC(=O)C3CC3)c3ccccc32)CC1 ; wanted: its Emax
Ans: < 25%

----------
target: M2 muscarinic receptor (Homo sapiens, UniProt P08172); test: Functional mobilization of intracellular calcium (FLIPR) in CHO cells expressing M2; conditions: CHO cells expressing M2, FLIPR calcium
Sequence (P08172 whole entry): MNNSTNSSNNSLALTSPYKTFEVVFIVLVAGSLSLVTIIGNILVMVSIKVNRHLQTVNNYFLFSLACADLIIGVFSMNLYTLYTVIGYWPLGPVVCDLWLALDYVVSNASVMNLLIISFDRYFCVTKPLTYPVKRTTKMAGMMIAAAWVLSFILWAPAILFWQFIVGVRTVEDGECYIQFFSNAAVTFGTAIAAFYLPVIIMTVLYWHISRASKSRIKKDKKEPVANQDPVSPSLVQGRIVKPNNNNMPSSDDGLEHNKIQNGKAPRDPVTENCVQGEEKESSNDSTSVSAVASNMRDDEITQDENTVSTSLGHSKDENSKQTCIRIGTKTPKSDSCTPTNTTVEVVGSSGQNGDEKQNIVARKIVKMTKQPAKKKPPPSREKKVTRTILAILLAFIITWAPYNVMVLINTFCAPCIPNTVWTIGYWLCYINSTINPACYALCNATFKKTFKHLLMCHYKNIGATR
pEC50: −log10 of the molar value.
MEASURED ENDPOINT: pEC50

// solved cases for pEC50 follow
1. CC(=O)NCCC(=O)N[C@@H]1CCC2(CCN(CCC(C)(C)C)CC2)c2ccccc21	5.30 to 5.70
2. CN(C)C(=O)N[C@H]1CCC2(CCN(CCC(C)(C)C)CC2)c2ccccc21	< 5.30
3. CCN(C(=O)c1cncn1C)[C@@H]1CCC2(CCN(CCC(C)(C)C)CC2)c2ccccc21	< 5.30

Q: Consider the molecule CC(C)[C@@H](C(=O)N[C@H]1CCC2(CCN(CCC(C)(C)C)CC2)c2ccccc21)N1CCCC1=O and give its measured pEC50.
Ans: < 5.30

Q: Queued: C[C@@H](O)CC(=O)N[C@H]1CCC2(CCN(CCC(C)(C)C)CC2)c2ccccc21
Ans: > 5.70

Q: Next molecule: CC#CCN(C(C)=O)[C@H]1CCC2(CCN(CCC(C)(C)C)CC2)c2ccccc21
Ans: > 5.70

Q: Continue with CC(=O)N1CCC[C@H]1C(=O)N[C@@H]1CCC2(CCN(CCC(C)(C)C)CC2)c2ccccc21
Ans: > 5.70

Hey, just so you know, these numbers are from patent US8003660B2.
